Collected cytotoxicity at 10 µM values appear next to each entry.
# METHOD_SUMMARY: Toxicity liver stage against HepG2, at 10uM
# Type: cell-based
# Parameters: test concentration 10 uM, cell line HepG2-A16-CD81EGFP
# APPLIED_CONDITIONS: human, HepG2-A16-CD81EGFP cells; read-out: INHIBITION
Could you give me the number in %? Just the number is fine.

Field request: cytotoxicity at 10 µM | item: Cc1ccsc1CNC(=O)Nc1ccn(CCN2CCOCC2)n1
8.28

For c1ccc(OCCN2CCC(c3nnc(-c4cccnc4)o3)CC2)cc1 then?
-27.9

For O=C(c1ccc(NC2CC2)nc1)N1CCCC(n2cccn2)C1 (stereo unspecified) then?
-12.2

For Cc1cc(N(C)Cc2cc(C)on2)n2nc(C)c(C)c2n1 then?
19.2

For c1ccc(CO[C@@H]2C[C@H]3CN(c4ncccn4)CCN3C2)cc1 then?
0.472

For Cc1nc(C)n(CC2CCCN(CCCOc3ccc(F)cc3)C2)n1 (stereo unspecified) then?
-3.08

For O=C1CN(CCS(=O)(=O)c2ccc(Cl)cc2)CCN1 then?
-9.2

For COc1ccc(-c2noc([C@@H]3C[C@H](NC(=O)NC(C)C)CN3C)n2)cc1 then?
-1.47

For COc1cc(C(=O)N(CCC#N)Cc2ccccn2)ccc1C then?
11.3

For Cc1ccnc(NC(=O)c2cncc(C3CCNCC3)n2)c1 then?
-9.48

For Cc1nnc2n1CCN(C(=O)c1ccnc(N(C)C)c1)C2 then?
-16.2

---

Collected cytotoxicity at 10 µM values appear next to each entry.
# METHOD_SUMMARY: Toxicity liver stage against HepG2, at 10uM
# Assay type: cell-based
# Parameters: test concentration 10 uM, cell line HepG2-A16-CD81EGFP
# APPLIED_CONDITIONS: human, HepG2-A16-CD81EGFP cells; read-out: INHIBITION
Could you give me the number in %? Just the number is fine.

Example results:
COMPOUND	RECORDED_RESULT
COc1ccc(OC)c(CNC2CCCN(c3cccnn3)C2)c1 (stereo not drawn)	-4.67
c1cc(CN2C[C@@H]3OCCN(CC4CCCO4)[C@@H]3C2)ccn1 (stereo partly drawn)	-80.2
Cc1cc(C(=O)N2CCc3nc4sc(C)cc4c(=O)n3CC2)on1	-16.2

Please examine the following record next.
Field request: cytotoxicity at 10 µM | item: CCc1c(C)sc2ncnc(N3CC[C@@H](N4CCOCC4)[C@H](O)C3)c12
-4.24

---

# METHOD_SUMMARY: Toxicity liver stage against HepG2, at 10uM
# Type: cell-based
# Design: test concentration 10 uM, cell line HepG2-A16-CD81EGFP
# APPLIED_CONDITIONS: human, HepG2-A16-CD81EGFP cells; read-out: INHIBITION
VALUE_TYPE: cytotoxicity at 10 µM (%)
Could you give me the number in %? Just the number is fine.

MOLECULE	UNIT	cytotoxicity at 10 µM
O=S(=O)(c1ccc(Cl)cc1)N1CCN(CCCn2ccnc2)CC1	%	-6.18
CC(C(=O)NC1CC1)S(=O)(=O)Cc1csc(-c2cccs2)n1 (centres undefined)	%	9.02
Cc1ccc(S(N)(=O)=O)cc1C(=O)NCC1Cc2ccccc2O1 (centres undefined)	%	3.04
CC(C)c1nnc(CN2CCCc3ccc(S(N)(=O)=O)cc32)o1	%	-1.08
CS(=O)(=O)NCC(=O)NC1(c2ccc(Cl)c(Cl)c2)CC1	%	-10.7
N#CCCN(CC1CCCO1)C(=O)c1ccc(C#N)cc1 (centres undefined)	%	-2.45
CNc1ncccc1C(=O)N1CCc2c(nc(N)[nH]c2=O)C1	%	3.61
CC(c1cc(F)ccc1F)N1CCN(C(=O)c2ccc(=O)[nH]c2)CC1 (centres undefined)	%	5.94

Field request: cytotoxicity at 10 µM | item: CCc1noc(CCCC(=O)Nc2cc(C(F)(F)F)c[nH]c2=O)n1
-4.84

For c1cncc(C[C@H]2[C@H](N3CCOCC3)CCN2Cc2cccs2)c1 then?
8.34

For COC(=O)C(NC(=O)c1ccco1)c1cc(F)ccc1F (centres undefined) then?
-11.5

For CCn1nc(C)c2ncnc(NCCN3CCOCC3)c21 then?
8.93

For CCOCC1c2c(cnn2CC2CC2)CCN1C(=O)c1ccncn1 (centres undefined) then?
-118
